# Test system: Staphylococcus aureus
# test_description: Antibacterial activity against Staphylococcus aureus at 50 ug/ml incubated for 24 hrs by agar well diffusion method
# Format: functional
# condition: read-out: DIZ
Form field: zone of inhibition at 50 µg/mL (one value per entry).
API: value field is a number in mm; no unit string.

Here is how some compounds turned out for zone of inhibition at 50 µg/mL.
# smiles, readout_unit, zone of inhibition at 50 µg/mL
measured = [
    ("CC(C)(C)OC(=O)N[C@@H](Cc1c[nH]c2ccccc12)C(=O)Oc1ccc2c(=O)c3ccccc3oc2c1", "mm", 29),
    ("C[C@H](N)C(=O)Oc1ccc2c(=O)c3ccccc3oc2c1.Cl", "mm", 13),
    ("CC(C)C[C@H](N)C(=O)Oc1ccc2c(=O)c3ccccc3oc2c1.Cl", "mm", 12),
    ("Cl.NCC(=O)Oc1ccc2c(=O)c3ccccc3oc2c1", "mm", 15),
    ("CC(C)(C)OC(=O)N1CCC[C@H]1C(=O)Oc1ccc2c(=O)c3ccccc3oc2c1", "mm", 24),
]

Item: Cl.N[C@@H](Cc1c[nH]c2ccccc12)C(=O)Oc1ccc2c(=O)c3ccccc3oc2c1 | zone of inhibition at 50 µg/mL: 31

// C[C@H](NC(=O)OC(C)(C)C)C(=O)Oc1ccc2c(=O)c3ccccc3oc2c1 : zone of inhibition at 50 µg/mL value = 10

What the record says about Cl.O=C(Oc1ccc2c(=O)c3ccccc3oc2c1)[C@@H]1CCCN1 : zone of inhibition at 50 µg/mL is 27

Per the record, CC(C)[C@H](NC(=O)OC(C)(C)C)C(=O)Oc1ccc2c(=O)c3ccccc3oc2c1 has zone of inhibition at 50 µg/mL of 13

Data point: CC(C)(C)OC(=O)N[C@@H](CS)C(=O)Oc1ccc2c(=O)c3ccccc3oc2c1 ; zone of inhibition at 50 µg/mL = 28

----------
# Test system: Escherichia coli
# test_description: Antibacterial activity against Escherichia coli incubated for 24 hrs by microdilution method
# Assay type: functional
Rule: measured MIC below 20 µg/mL gets Criterion met; anything equal to or greater than 20 µg/mL gets Criterion not met.

# smiles, cat
measured = [
    ("Cl.N[C@@H](Cc1ccccc1)C(=O)Oc1ccc2c(=O)c3ccccc3oc2c1", "Criterion not met"),
]

### Prompt Is MIC of Cl.O=C(Oc1ccc2c(=O)c3ccccc3oc2c1)[C@@H]1CCCN1 strictly below 20 µg/mL?
### Response Criterion not met

### Prompt Confirm or reject: MIC of CC(C)(C)OC(=O)N1CCC[C@H]1C(=O)Oc1ccc2c(=O)c3ccccc3oc2c1 lies strictly below 20 µg/mL
### Response Criterion not met

### Prompt I wonder whether CC(C)(C)OC(=O)N[C@@H](Cc1ccc(O)cc1)C(=O)Oc1ccc2c(=O)c3ccccc3oc2c1 has MIC below 20 µg/mL. Can you tell?
### Response Criterion met

### Prompt Please check: MIC for CC(C)(C)OC(=O)N[C@@H](Cc1ccccc1)C(=O)Oc1ccc2c(=O)c3ccccc3oc2c1 , strictly under 20 µg/mL or not?
### Response Criterion not met

### Prompt Is it true that MIC reported for Cl.N[C@@H](Cc1c[nH]c2ccccc12)C(=O)Oc1ccc2c(=O)c3ccccc3oc2c1 is less than 20 µg/mL?
### Response Criterion met

### Prompt # TODO verify MIC < 20 µg/mL strictly for this compound: CC(C)(C)OC(=O)N[C@@H](Cc1c[nH]c2ccccc12)C(=O)Oc1ccc2c(=O)c3ccccc3oc2c1
### Response Criterion met

----------
# Test system: Erythrocyte
# test_description: Anti-inflammatory activity in human RBC assessed as inhibition of hypotonic solution-induced hemolysis after 10 mins by spectrophotometric method
# Type: functional, cell-based
# if measured IC50 < 60 µg/mL: class 1  # else: class 0

# smiles, cat
data = [
    ("Cl.N[C@@H](Cc1c[nH]c2ccccc12)C(=O)Oc1ccc2c(=O)c3ccccc3oc2c1", "class 1"),
]

API: the following record is the query input.
### Prompt I'd appreciate it if you could check whether O=c1c2ccccc2oc2cc(O)ccc12 has IC50 smaller than 60 µg/mL.
### Response class 0

----------
# System: Fusarium oxysporum
# test_description: Antifungal activity against Fusarium oxysporum incubated for 48 to 72 hrs by microdilution method
# Type: functional
measure: MIC (µg/mL)
# output: bare number, implied unit µg/mL

Recorded results for 4 compounds are shown here.
# compound, readout_unit, MIC
measured = [
    ("Cl.N[C@@H](Cc1ccc(O)cc1)C(=O)Oc1ccc2c(=O)c3ccccc3oc2c1", "µg/mL", 23),
    ("COC(=O)Nc1nc2ccccc2[nH]1 [CARBENDAZIM]", "µg/mL", 27),
    ("Cl.O=C(Oc1ccc2c(=O)c3ccccc3oc2c1)[C@@H]1CCCN1", "µg/mL", 28),
    ("Cl.N[C@@H](Cc1c[nH]c2ccccc12)C(=O)Oc1ccc2c(=O)c3ccccc3oc2c1", "µg/mL", 20),
]

Now let's try a different one.
The compound listed as Cl.N[C@@H](Cc1ccccc1)C(=O)Oc1ccc2c(=O)c3ccccc3oc2c1 has a reported MIC of 26

----------
Reported zone of inhibition at 25 µg/mL values for the following compounds.
# Tested on: Bacillus subtilis
# test_description: Antibacterial activity against Bacillus subtilis at 25 ug/ml incubated for 24 hrs by agar well diffusion method
# Type: functional
# condition: read-out: DIZ
Please respond with the number in mm and leave the unit unwritten.

Example cases with answers are listed next.
# smiles, zone of inhibition at 25 µg/mL (mm)
rows = [
    ("Cl.N[C@@H](Cc1ccccc1)C(=O)Oc1ccc2c(=O)c3ccccc3oc2c1", 22),
    ("CSCC[C@H](N)C(=O)Oc1ccc2c(=O)c3ccccc3oc2c1.Cl", 15),
    ("Cl.N[C@@H](Cc1ccc(O)cc1)C(=O)Oc1ccc2c(=O)c3ccccc3oc2c1", 23),
]

Value of measured zone of inhibition at 25 µg/mL for the entry Cl.NCC(=O)Oc1ccc2c(=O)c3ccccc3oc2c1 : 10

// recorded zone of inhibition at 25 µg/mL for CC[C@H](C)[C@H](N)C(=O)Oc1ccc2c(=O)c3ccccc3oc2c1.Cl : 11

----------
# Test system: Klebsiella pneumoniae
# test_description: Antibacterial activity against Klebsiella pneumoniae at 25 ug/ml incubated for 24 hrs by agar well diffusion method
# Format: functional
# condition: read-out: DIZ
Each entry below lists one item and its recorded zone of inhibition at 25 µg/mL value.
Reply with just the number (in mm).

# annotated cases, reported zone of inhibition at 25 µg/mL shown
# smiles, target_entity, zone of inhibition at 25 µg/mL / mm
data = [
    ("CC(C)(C)OC(=O)NCC(=O)Oc1ccc2c(=O)c3ccccc3oc2c1", "Klebsiella pneumoniae", 16),
    ("CC(C)C[C@H](NC(=O)OC(C)(C)C)C(=O)Oc1ccc2c(=O)c3ccccc3oc2c1", "Klebsiella pneumoniae", 8),
    ("CC(C)(C)OC(=O)N[C@@H](Cc1c[nH]c2ccccc12)C(=O)Oc1ccc2c(=O)c3ccccc3oc2c1", "Klebsiella pneumoniae", 22),
]

Please look at the following molecule next.
Measured zone of inhibition at 25 µg/mL, CSCC[C@H](NC(=O)OC(C)(C)C)C(=O)Oc1ccc2c(=O)c3ccccc3oc2c1 : 16

----------
The reader will find reported zone of inhibition at 50 µg/mL values listed item by item below.
# Tested on: Fusarium oxysporum
# test_description: Antifungal activity against Fusarium oxysporum at 50 ug/ml incubated for 48 hrs by agar well diffusion method
# Type: functional
# condition: read-out: DIZ
State the value, then name its unit.

Solved entries:
# smiles, zone of inhibition at 50 µg/mL
records = [
    ("Cl.NCC(=O)Oc1ccc2c(=O)c3ccccc3oc2c1", "10 mm"),
    ("CC(C)(C)OC(=O)N[C@@H](CS)C(=O)Oc1ccc2c(=O)c3ccccc3oc2c1", "24 mm"),
    ("N[C@@H](Cc1c[nH]c2ccccc12)C(=O)O", "7 mm"),
]

Tested system Fusarium oxysporum; zone of inhibition at 50 µg/mL recorded for COC(=O)Nc1nc2ccccc2[nH]1 was 27 mm

The reported Fusarium oxysporum zone of inhibition at 50 µg/mL of C[C@H](NC(=O)OC(C)(C)C)C(=O)Oc1ccc2c(=O)c3ccccc3oc2c1 is 10 mm

Observed zone of inhibition at 50 µg/mL on Fusarium oxysporum, entry CC(C)[C@H](N)C(=O)Oc1ccc2c(=O)c3ccccc3oc2c1.Cl , equals 15 mm

----------
# Test system: Escherichia coli
# test_description: Antibacterial activity against Escherichia coli at 50 ug/ml incubated for 24 hrs by agar well diffusion method
# Assay type: functional
# condition: read-out: DIZ
Would you please tag the item rule met when its zone of inhibition at 50 µg/mL is 10 mm or above, and rule not met when it is below?

Worked set:
# smiles, target_entity, cat
measured = [
    ("CC(C)(C)OC(=O)N[C@@H](Cc1c[nH]c2ccccc12)C(=O)Oc1ccc2c(=O)c3ccccc3oc2c1", "Escherichia coli", "rule met"),
    ("O=c1c2ccccc2oc2cc(O)ccc12", "Escherichia coli", "rule not met"),
    ("CC(C)[C@H](N)C(=O)Oc1ccc2c(=O)c3ccccc3oc2c1.Cl", "Escherichia coli", "rule met"),
    ("CSCC[C@H](N)C(=O)Oc1ccc2c(=O)c3ccccc3oc2c1.Cl", "Escherichia coli", "rule met"),
    ("CC(C)[C@H](NC(=O)OC(C)(C)C)C(=O)Oc1ccc2c(=O)c3ccccc3oc2c1", "Escherichia coli", "rule met"),
]

### Prompt Has N[C@@H](Cc1c[nH]c2ccccc12)C(=O)O a recorded zone of inhibition at 50 µg/mL greater than or equal to 10 mm?
### Response rule not met

### Prompt API: above_or_equal(metric=zone of inhibition at 50 µg/mL, cutoff=10 mm) for item Cl.N[C@@H](CS)C(=O)Oc1ccc2c(=O)c3ccccc3oc2c1
### Response rule met

### Prompt Has CC(C)C[C@H](N)C(=O)Oc1ccc2c(=O)c3ccccc3oc2c1.Cl a recorded zone of inhibition at 50 µg/mL greater than or equal to 10 mm?
### Response rule met

### Prompt Test whether the compound CSCC[C@H](NC(=O)OC(C)(C)C)C(=O)Oc1ccc2c(=O)c3ccccc3oc2c1 records zone of inhibition at 50 µg/mL of 10 mm or higher.
### Response rule met
